Target: biotinylated recombinant SARS-CoV-2 wild type spike RBD (SARS-CoV-2, wild type, UniProt P0DTC2, biotin (biotinylated; detected with streptavidin-FITC))
Experiment: flow cytometry on cells
Conditions: one partner purified
endpoint: binding result

binder	endpoint	resultValue
REGN10987 scFv combinatorial variant d3 displayed on HEK 293T cells (scFv, V domains shown) VH: QVQLVESGGGVVQPGRSLRLSCAASGFTFSNYAMYWVRQAPGKGLEWVAVISYTGSHKYYADSVKGRFTISRDNSKNTLYLQMNSLRTEDTAVYYCASGSDYGDYLLVYWGQGTLVTVSS VL: QSALTQPASVSGSPGQSITISCTGTSSDVGGYNYVSWYQQHPGKAPKLMIYDVSKRPSGVSNRFSGSKSGNTASLTISGLQSEDEADYYCNSLTSIYTWVFGGGTKLTVL	binding result	binds
REGN10987 scFv combinatorial variant d1 displayed on HEK 293T cells (scFv, V domains shown) VH: QVQLVESGGGVVQPGRSLRLSCAASGFTFSNYAMYWVRQAPGKGLEWVAVISYTGSNKYYADSVKGRFTISRDNSKNTLYLQMNSLRTEDTAVYYCASGSDYGDYLLVYWGQGTLVTVSS VL: QSALTQPASVSGSPGQSITISCTGTSSDVGGYNYVSWYQQHPGKAPKLMIYDVSKRPSGVSNRFSGSKSGNTASLTISGLQSEDEADYYCNSLTSIYTWVFGGGTKLTVL	binding result	binds
